- measuredTarget: ClbP (Escherichia coli, UniProt Q0P7K6)
- procedureSummary: ClbP cell lysate activity (inhibition) assay, fluorogenic substrate
- Format: biochemical
- assayConditions: ClbP Lysate Inhibition Assay: IC50, E. coli ClbP+ lysozyme-EDTA lysates, 5 μM fluorogenic substrate, inhibitor 0-300 μM, 37° C., singlicate
pIC50: −log10 of the molar value.
parameter: pIC50

Below are worked cases with known answers.
1) CC(=O)N[C@H](CC(N)=O)C(=O)NCCc1ccccc1 [Compound CCLXV]
< 3.52
2) CCCCCCCC(=O)N[C@H]1CC(=O)NC1(O)C(=O)NCc1ccccc1 (stereo partly shown) [Compound CCLXXXIX]
3.52 to 4.00
3) CCCCCCCC(=O)N[C@@H](CNCCc1ccccc1)CC(N)=O [Compound IX]
< 3.52

Turning to the following molecule.
May I ask what pIC50 has been recorded for CCCCCCCC(=O)N[C@H](CC(N)=O)c1nnn(CCc2ccccc2)n1 [Compound XVIII] ?
< 3.52

* * *

- measuredTarget: ClbP (Escherichia coli)
- procedureSummary: ClbP cell lysate activity (inhibition) assay, fluorogenic substrate
- Format: biochemical
- assayConditions: ClbP Lysate Inhibition Assay: IC50, E. coli ClbP+ lysozyme-EDTA lysates, 5 μM fluorogenic substrate, inhibitor 0-300 μM, 37° C., singlicate
- Method: Cell Lysate Activity Assay 1) E. coli ClbP+ were taken from a frozen stock and streaked onto BHI plates. They were grown aerobically at 37° C. overnight in the incubator. […] 6) The plate was loaded into a spectrophotometer preheated to 37° C. The fluorescence was recorded every 2 min for 46 min. […] 7) The linear portion of the fluorescence increase was 0-20 min. The rate of fluorescence increase (A.U./min) for each well in an inhibitor series was normalized to the 0 μM inhibitor condition. […]
Listed below: IC50 values for each entry.

Below are worked cases with known answers.
1. CCCCCCCC(=O)N[C@@H](CN[C@@H](C)C(=O)OC)CC(N)=O
> 300 µM
2. CCCCCCCC(=O)N[C@H](CC(N)=O)C(=O)NCCN1CCN(C)CC1
> 300 µM

Turning to the following molecule.
Report IC50 for `CCCCCCCC(=O)N[C@H](CC(N)=O)C(=O)NCCc1ccccc1` tested on ClbP (Escherichia coli).
< 100 µM

* * *

Listed below: IC50 values for each entry.
- measuredTarget: ClbP (Escherichia coli, UniProt Q0P7K6)
- procedureSummary: ClbP whole cell activity (inhibition) assay, fluorogenic substrate
- Format: cell-based, E. coli

1. CCCCCCCC(=O)N[C@H](CC(N)=O)CN(C)CCc1ccccc1 [Compound XVI]
> 300 µM
2. O=C(/C=C/CC1CCCCC1)N[C@H](CC(=O)NO)C(=O)NCCc1ccc(O)cc1 [Compound CCXCVII]
< 100 µM
3. CCCCCCCC(=O)N[C@H](CC(N)=O)C(=O)N[C@@H](C)Cc1ccccc1 [Compound CCIV]
> 300 µM

May I ask what IC50 has been recorded for CCCCCCCC(=O)N[C@H](CC(N)=O)C(=O)N[C@H](C)Cc1ccc(O)cc1 [Compound CCXLV] ?
< 100 µM

May I ask what IC50 has been recorded for CCCCCCCC(=O)N[C@H]1CC(=O)NC1(O)C(=O)NCc1ccccc1 (some centres unmarked) [Compound CCLXXXIX] ?
100 to 300 µM

May I ask what IC50 has been recorded for CCCCCCCC(=O)N[C@H](CC(N)=O)C(=O)O[C@@H](C)C(=O)OC [Compound LXXVI] ?
< 100 µM

May I ask what IC50 has been recorded for NC(=O)C[C@@H](NC(=O)CCCC1CCCCC1)C(=O)NCCc1ccccn1 [Compound CCCIII] ?
< 100 µM

May I ask what IC50 has been recorded for NC(=O)C[C@@H](NC(=O)/C=C/CC1CCCCCC1)C(=O)NCCc1ccc(O)cc1 [Compound CCXL] ?
< 100 µM

May I ask what IC50 has been recorded for CCCCCCCC(=O)N[C@H](CC(N)=O)c1nnn(C(C)(C)C)n1 [Compound XIX] ?
> 300 µM

May I ask what IC50 has been recorded for CCCCCCCCCC(=O)N[C@H](CC(N)=O)C(=O)NCCc1ccccc1 [Compound CCLXVI] ?
< 100 µM

May I ask what IC50 has been recorded for CCCCCCCC(=O)N[C@H](CC(N)=O)C(=O)NCCOc1c(F)cccc1F [Compound CCLV] ?
< 100 µM

May I ask what IC50 has been recorded for NC(=O)C[C@@H](NC(=O)CCC1CCCCC1)C(=O)NCCc1ccccc1 [Compound CCXLIII] ?
< 100 µM

May I ask what IC50 has been recorded for CCCCCCCC(=O)N[C@H](CC(N)=O)C(=O)NCCc1ccco1 [Compound CCXXXI] ?
< 100 µM

May I ask what IC50 has been recorded for CCCCCCCC(=O)N[C@H](CC(N)=O)C(=O)NCCc1ccc(O)c(O)c1 [Compound CCXXVI] ?
< 100 µM

* * *

- measuredTarget: ClbP (Escherichia coli, UniProt Q0P7K6)
- procedureSummary: ClbP cell lysate activity (inhibition) assay, fluorogenic substrate
- Format: biochemical
- assayConditions: ClbP Lysate Inhibition Assay: IC50, E. coli ClbP+ lysozyme-EDTA lysates, 5 μM fluorogenic substrate, inhibitor 0-300 μM, 37° C., singlicate
Listed below: IC50 values for each entry.

1) NC(=O)C[C@@H](NC(=O)CCCCC(F)(F)F)C(=O)NCCc1ccc(O)cc1
< 100 µM

May I ask what IC50 has been recorded for `O=C(C[C@@H](NC(=O)CCC1CCCCC1)C(=O)NCCc1ccc(O)c(O)c1)NO` ?
100 to 300 µM

May I ask what IC50 has been recorded for `CCCCCCCC(=O)N[C@H](CC(N)=O)C(=O)NCc1ccccc1` ?
< 100 µM

May I ask what IC50 has been recorded for `CCCCCCCC(=O)N[C@H](CC(N)=O)C(=O)O[C@@H](C)C(=O)OC` ?
< 100 µM

May I ask what IC50 has been recorded for `CCCCCCCC(=O)N[C@H](CC(N)=O)C(=O)NCCc1ccc(O)c(O)c1` ?
< 100 µM

May I ask what IC50 has been recorded for `CCCCCCCC(=O)N[C@H](CC(N)=O)C(=O)NCCc1ccc(OC)nc1` ?
< 100 µM

May I ask what IC50 has been recorded for `CCCCCCCC(=O)N[C@H](CC(N)=O)C(=O)NCCc1ccc(C(F)(F)F)cc1` ?
> 300 µM

May I ask what IC50 has been recorded for `CCCCCCCC(=O)N[C@H](CC(N)=O)[C@H](O)CCCc1ccccc1` ?
< 100 µM

May I ask what IC50 has been recorded for `NC(=O)C[C@@H](NC(=O)CCC1CCCCC1)C(=O)NCCc1ccc(O)cc1` ?
< 100 µM

* * *

- measuredTarget: ClbP (Escherichia coli)
- procedureSummary: ClbP cell lysate activity (inhibition) assay, fluorogenic substrate
- Assay type: biochemical
- assayConditions: ClbP Lysate Inhibition Assay: IC50, E. coli ClbP+ lysozyme-EDTA lysates, 5 μM fluorogenic substrate, inhibitor 0-300 μM, 37° C., singlicate
- Experimental: Cell Lysate Activity Assay 1) E. coli ClbP+ were taken from a frozen stock and streaked onto BHI plates. They were grown aerobically at 37° C. overnight in the incubator. […] 6) The plate was loaded into a spectrophotometer preheated to 37° C. The fluorescence was recorded every 2 min for 46 min. […] 7) The linear portion of the fluorescence increase was 0-20 min. The rate of fluorescence increase (A.U./min) for each well in an inhibitor series was normalized to the 0 μM inhibitor condition. […]
pIC50: −log10 of the molar value.
parameter: pIC50

1. NC(=O)C[C@@H](NC(=O)/C=C/CC1CCCCCC1)C(=O)NCCc1ccccc1 [Compound CCXXXVIII]
> 4.00

May I ask what pIC50 has been recorded for CCCCCCCCCC(=O)N[C@H](CC(N)=O)C(=O)NCCc1ccccn1 [Compound CCCIX] ?
> 4.00

May I ask what pIC50 has been recorded for CCCCCCCC(=O)N[C@H](CC(N)=O)C(=O)N(C)CCc1ccc(O)cc1 [Compound CCLXXVII] ?
> 4.00

May I ask what pIC50 has been recorded for CCCCCCCC(=O)N[C@H](CC(N)=O)C(=O)N[C@@H](C)Cc1ccccc1 [Compound CCIV] ?
< 3.52

May I ask what pIC50 has been recorded for CCCCCCCC(=O)N[C@H](CC(N)=O)C(=O)NC[C@@H](C)c1ccccc1 [Compound CCCII] ?
> 4.00

May I ask what pIC50 has been recorded for CCCCCCCCCC(=O)N[C@H](CC(N)=O)C(=O)NCCc1ccccc1 [Compound CCLXVI] ?
> 4.00

May I ask what pIC50 has been recorded for CCCCCC(=O)N[C@H](CC(N)=O)C(=O)NCCc1ccc(C(F)(F)F)cc1 [Compound CCLIX] ?
3.52 to 4.00

May I ask what pIC50 has been recorded for O=C(/C=C/C1CCCCC1)N[C@H](CC(=O)NO)C(=O)NCCc1ccc(O)cc1 [Compound CCXCIV] ?
> 4.00

May I ask what pIC50 has been recorded for NC(=O)C[C@@H](NC(=O)/C=C/CC1CCCC1)C(=O)NCCc1ccc(O)cc1 [Compound CCLX] ?
> 4.00

May I ask what pIC50 has been recorded for CNCCCCCC(=O)N[C@H](CC(N)=O)C(=O)NCCc1ccc(O)cc1 [Compound CCC] ?
< 3.52

May I ask what pIC50 has been recorded for NC(=O)C[C@@H](NC(=O)CCCC1CCNCC1)C(=O)NCCc1ccc(O)cc1 [Compound CCLII] ?
< 3.52

May I ask what pIC50 has been recorded for CCCCCCCC(N[C@H](CC(N)=O)C(=O)NCCc1ccccc1)C(F)(F)F (stereo partly drawn) [Compound CCXIV] ?
< 3.52

May I ask what pIC50 has been recorded for CCCCCCCC(=O)N[C@H](CC(N)=O)CN(C)CCc1ccccc1 [Compound XVI] ?
> 4.00

May I ask what pIC50 has been recorded for NC(=O)C[C@@H](NC(=O)CCCC1CCCC1)C(=O)NCCc1ccc(O)cc1 [Compound CCLXI] ?
> 4.00

May I ask what pIC50 has been recorded for CCCCCCCC(=O)N[C@H](CC(N)=O)C(=O)N[C@@H](C)Cc1ccc(O)cc1 [Compound CCXLIV] ?
> 4.00
